# System: Fibroblast
# Assay name: Incucyte cell viability with human fibroblast; also: unitless GR value; below 1 slowed growth and below 0 cell loss
# Format: toxicity, cell-based
# Measurement parameters: 0 h, 10 µM, compound concentration 10 uM, replicate number 1, timepoint 0 hours
Where a SMILES comes first, the peptide text is derived from it. Bridges are numbered along the chain shown (N, C = ends). [ ]: non-standard residue; d: D form. Orn = NCCC[C@H](N)C(=O)O; Mpa = O=C(O)CCS
Kindly state Growth Rate for each of the entries shown.
Give bare numbers.

These recorded examples may help you get a feel for the data.
INSERT INTO results (molecule, result_type, experimental_result) VALUES
  ('COc1c(C)cc(NC(=O)c2nn(Cc3ccc(F)cc3)c3c2CN(C(=O)c2ccc[nH]2)C[C@]3(C)C(N)=O)cc1C', 'Growth Rate', 0.8),
  ('O=C1Nc2ccc(I)cc2/C1=C/c1cc(Br)c(O)c(Br)c1', 'Growth Rate', -0.2),
  ('Cc1cc(Cn2nnc3c(-c4ccco4)nc(N)nc32)ccc1N', 'Growth Rate', 0.03),
  ('O=C1NC(NC23CC4CC(CC(C4)C2)C3)=N/C1=C\c1ccc2ncsc2c1', 'Growth Rate', -0.85),
  ('CC1(C)SSC(C)(C)[C@@H](NC(=O)[C@@H](N)Cc2ccc(O)cc2)C(=O)NCC(=O)N[C@@H](Cc2ccccc2)C(=O)N[C@H]1C(=O)O.O=C(O)C(F)(F)F', 'Growth Rate', 0.24),
  ('Cc1cccc(S(=O)(=O)N(C)[C@H](C)CCN2CCC(C)CC2)c1.Cl', 'Growth Rate', 0.08);

// batch mode: one Growth Rate value per listed entry
1. CC(C)C[C@@H](NC(=O)[C@H](Cc1ccccc1)NC(=O)CNC(=O)[C@@H](C)NC(=O)[C@@H](N)Cc1ccc(O)cc1)C(=O)O
2. CO[C@H]1CC[C@@H](C(=O)c2ccc3nc4c(cc3c2)CCCO4)CC1
3. Cl.NCCc1ccc(O)c(O)c1 [DOPAMINE HYDROCHLORIDE]
4. CC(C)c1cc(Oc2c(Cl)cc(-n3nc(C#N)c(=O)[nH]c3=O)cc2Cl)n[nH]c1=O
5. CN[C@@H](C)C(=O)N[C@H](C(=O)N1CCC[C@H]1C(=O)Nc1snnc1-c1ccccc1)C1CCCCC1
6. NCCc1c[nH]c2ccc(C(N)=O)cc12.O=C(O)/C=C\C(=O)O

Result:
1: 0.72; 2: 0.96; 3: 0.12; 4: -0.06; 5: 0.95; 6: 0.89

Can you give me Growth Rate for all of these, one by one?
1. Cc1ccc(C(C)(O)c2nc3ccccc3s2)c(C)c1 (centres undefined)
2. CN1CCC(c2c[nH]c3ccc(O)cc23)CC1
3. O=C(O)c1nc2ccccc2c2[nH]c3c(I)cccc3c12
4. CC(C)C[C@@H]1NC(=O)[C@@H](C(C)C)NC(=O)[C@@H]2CCCN2C(=O)[C@@H](CC(=O)O)NC(=O)[C@@H](Cc2c[nH]c3ccccc23)NC1=O [BQ-123] (cyclo(L[dW][dD]P[dV]))
5. CCOc1ccc(C[C@H]2NC(=O)CCSSC[C@@H](C(=O)N3CCC[C@H]3C(=O)N[C@@H](CCCN)C(=O)NCC(N)=O)NC(=O)[C@H](CC(N)=O)NC(=O)[C@H]([C@@H](C)O)NC(=O)[C@H]([C@@H](C)CC)NC2=O)cc1 [ATOSIBAN] ([Mpa][dY](Et)ITNCP[Orn]G-NH2; disulfide 1-6)
6. Cl.Cl.NCCc1c[nH]cn1 [HISTAMINE DIHYDROCHLORIDE]
7. O=C1NC(=O)C(c2ccccc2[N+](=O)[O-])=C1Nc1ccc(O)c(Cl)c1

Result:
0.44
0.18
-0.96
0.41
0.49
0.45
-0.16

Please look at the items below and tell me Growth Rate for each one, in order.
1. CC(C)c1cc(-c2ccc(F)c3ccccc23)nc(N)n1
2. C[C@H](NC(=O)CNC(=O)c1cccc(Cl)c1)c1ccccc1

Result:
[-0.03, 0.45]

====

I'd appreciate it if you could supply Growth Rate values for the items below.
# Test system: HEK-293T
# Assay name: Incucyte cell viability with HEK293T; also: unitless GR value; below 1 slowed growth and below 0 cell loss
# Type: toxicity, cell-based
# Measurement parameters: human, 12 h, 10 µM, compound concentration 10 uM, replicate number 2, timepoint 12 hours
Numbers only.

Below are worked cases with known answers.
INSERT INTO measurements (compound, experimental_result) VALUES
  ('COc1cc2c(Oc3ccc(NC(=O)C4(C(=O)Nc5ccc(F)cc5)CC4)cc3F)ccnc2cc1OCCCN1CCOCC1 [FORETINIB]', -0.89),
  ('Nc1nc(-c2ccco2)c2cnn(Cc3ccccc3F)c2n1', -0.25),
  ('CC(C)N(CCCCOCC(=O)NS(C)(=O)=O)c1cnc(-c2ccccc2)c(-c2ccccc2)n1 [SELEXIPAG]', 0.73);

Turning to the following compound.
Q: Entry under review: CSCC[C@H](NC(=O)[C@H](CC(C)C)NC(=O)CNC(=O)[C@H](Cc1ccccc1)N(C)C(=O)[C@H](Cc1ccccc1)NC(=O)[C@H](CC(=O)O)NC(=O)CCC(=O)O)C(N)=O [SENKTIDE] . Reported Growth Rate?
Result: 0.93

====

# Test system: HEK-293T
# Assay name: Incucyte cell viability with HEK293T; also: unitless GR value; below 1 slowed growth and below 0 cell loss
# Assay type: toxicity, cell-based
# Measurement parameters: human, 12 h, 10 µM, compound concentration 10 uM, replicate number 1, timepoint 12 hours
Result type: Growth Rate

Take a look at these entries with their results.
INSERT INTO measurements (sample_smiles, result_type, experimental_result) VALUES
  ('O=C(O)CCn1c2c(c3ccccc31)C[C@H](NS(=O)(=O)c1ccc(F)cc1)CC2', 'Growth Rate', 0.91),
  ('CC[C@H]1CN2CCc3cc(OC)c(OC)cc3[C@@H]2C[C@@H]1C[C@H]1NCCc2cc(OC)c(OC)cc21', 'Growth Rate', -0.71),
  ('COc1cc(Nc2ncc3c(n2)-c2ccc(Cl)cc2C(c2c(F)cccc2OC)=NC3)ccc1C(=O)O', 'Growth Rate', 0.13);

Could you now consider this next compound?
Q: HEK-293T / Growth Rate / `O=C1NC(=Nc2c(Cl)cccc2Cl)S/C1=C\c1ccc2nccnc2c1` : value?
Result: 0.15

====

# Test system: U2OS
# Assay name: Incucyte cell viability with U2OS; also: unitless GR value; below 1 slowed growth and below 0 cell loss
# Type: toxicity, cell-based
# Measurement parameters: human, 6 h, 10 µM, compound concentration 10 uM, replicate number 2, timepoint 6 hours
Result type: Growth Rate
Numbers only.

Answered cases to consult:
INSERT INTO measurements (compound, experimental_target, result_type, experimental_result) VALUES
  ('O=c1ccn([C@@H]2O[C@H](COP(=O)([O-])OP(=O)([O-])OP(=O)([O-])O)[C@@H](O)[C@H]2O)c(=O)[nH]1.[Na+].[Na+].[Na+]', 'U2OS', 'Growth Rate', 0.83),
  ('COc1ccncc1C(=O)NC(=O)Nc1ccc(-c2ccccc2)c(C(F)(F)F)c1', 'U2OS', 'Growth Rate', 0.74),
  ('CC#C[C@@H](CC(=O)O)c1ccc(OCc2cccc(-c3ccc(C(F)(F)F)cc3)c2)cc1', 'U2OS', 'Growth Rate', 0.69);

Now look at this one.
Q: What value of Growth Rate has been reported for the following compound? CO/C1=C/C(C)=C\[C@@H](C)[C@@H](O)[C@@H](C)C/C(C)=C\C=C/[C@H](OC)C([C@@H](C)[C@@H](O)[C@H](C)[C@@]2(O)C[C@@H](O)[C@H](C)[C@@H](C(C)C)O2)OC1=O (some centres undefined)
Result: 0.63

====

# Test system: HEK-293T
# Assay name: Incucyte cell viability with HEK293T; also: unitless GR value; below 1 slowed growth and below 0 cell loss
# Assay type: toxicity, cell-based
# Measurement parameters: human, 6 h, 10 µM, compound concentration 10 uM, replicate number 1, timepoint 6 hours
Assignment: determine reported Growth Rate for the given compounds.
Answers are plain numbers.

# map each compound to its Growth Rate
1. O=C(NC[C@@H]1[C@H]2CN(C(=O)OCc3cc(C(F)(F)F)cc(C(F)(F)F)c3)C[C@@H]12)c1ccc2[nH]nnc2c1 [BI 2545]
2. Nc1nc(-c2ccco2)c2cnn(Cc3ccccc3F)c2n1

Result:
1. 0.33
2. -0.23

====

# Test system: U2OS
# Assay name: Incucyte cell viability with U2OS; also: unitless GR value; below 1 slowed growth and below 0 cell loss
# Format: toxicity, cell-based
# Measurement parameters: human, 0 h, 10 µM, compound concentration 10 uM, replicate number 2, timepoint 0 hours
Note to self: use Condition met only for Growth Rate readings below -0.3; a reading exactly at -0.3 still gets Condition not met.

The examples below pair each entry with its known result.
INSERT INTO results (compound, experimental_target, class) VALUES
  ('CC(=O)c1cc(-c2ccccc2OCC2CC2)c2ncccn12', 'U2OS', 'Condition not met'),
  ('O=C1NCc2ccc3c(-c4cccc(Cl)c4)c[nH]c3c21', 'U2OS', 'Condition not met'),
  ('CN1CCN(c2ccc(Nc3c4ccccc4nc4ccccc34)cc2)CC1.Cl.Cl.O', 'U2OS', 'Condition not met'),
  ('CC(C)c1cc(Oc2c(Cl)cc(-n3nc(C#N)c(=O)[nH]c3=O)cc2Cl)n[nH]c1=O', 'U2OS', 'Condition not met'),
  ('COc1ccc(-n2c(C)c([N+](=O)[O-])c3ccc(O)cc32)cc1', 'U2OS', 'Condition met'),
  ('Cl.FC(F)(F)c1ccc(N2CCNCC2)nc1Cl', 'U2OS', 'Condition not met');

Q: Item `COc1cc(Br)c(S(=O)(=O)Nc2ccc(C(F)(F)F)c(O[C@@H]3CCN(C)C3)c2)cc1OC` : Growth Rate beneath -0.3, strictly?
Result: Condition met

Q: Is Growth Rate strictly under -0.3 for the entry `CCS(=O)(=O)Nc1ccc(Oc2ccc(F)cc2F)c(-c2cn(C)c(=O)c3[nH]ccc23)c1` ?
Result: Condition met

Q: Determine whether this compound shows Growth Rate lower than -0.3 (ties excluded): `Cc1cc(Cn2nnc3c(-c4ccco4)nc(N)nc32)ccc1N`
Result: Condition met

Q: Consider the compound `O=c1ccc2ccc(OCCCCN3CCN(c4cccc5sccc45)CC3)cc2[nH]1` . Is its Growth Rate strictly less than -0.3?
Result: Condition not met

Q: Is Growth Rate of `CCCCC[C@H](O)/C=C/[C@H]1[C@H](O)CC(=O)[C@@H]1CCCCCCC(=O)O` strictly below -0.3?
Result: Condition met

Q: API: query returns whether the compound falls strictly under -0.3 in Growth Rate. Query: `NCCc1c[nH]c2ccc(C(N)=O)cc12.O=C(O)/C=C\C(=O)O`
Result: Condition not met

Q: Is the reported Growth Rate for `CCCCC/C=C\C/C=C\C/C=C\C/C=C\CCCC(=O)OC(CO)CO` strictly below -0.3?
Result: Condition not met

Q: Dear reviewer, please state whether `CCCn1c(=O)c2[nH]c(C3CCCC3)nc2n(CCC)c1=O` has Growth Rate strictly beneath -0.3.
Result: Condition met

Q: In plain terms, does `COCCN1CCC(c2cc(CN(C)C(=O)c3cccc(Oc4ccccc4)c3)ccn2)CC1` come in under -0.3 for Growth Rate?
Result: Condition met

Q: Determine whether this compound shows Growth Rate lower than -0.3 (ties excluded): `Cc1c(C(=O)Nc2ccc(N3C[C@@H](C)O[C@@H](C)C3)nc2)cccc1-c1ccc(OC(F)(F)F)cc1`
Result: Condition met

Q: Does this compound meet the criterion Growth Rate < -0.3? `CSc1nc(NC2CCCC2)c([N+](=O)[O-])c(NC2CCCC2)n1`
Result: Condition met

Q: Lab log: compare recorded Growth Rate with -0.3; is it strictly lower for `CC[C@@]1(O)C(=O)OCc2c1cc1n(c2=O)Cc2cc3ccccc3nc2-1` ?
Result: Condition met

Q: Could you please tell me whether Growth Rate recorded for CCCCCCCC/C=C\CCCCCCCC(N)=O [OLEAMIDE] is less than -0.3?
Result: Condition not met
